Assay: 8-day repeat-dose study, tolerability (blood chemistry, hematology, adverse events) in tumor-bearing dogs
Assay type: in vivo, dog
Settings: Dog 3; Post: 30 min after last injection on day 8; 10 mg s.c. once daily for 8 days
Where a SMILES comes first, the peptide text is derived from it. [ ]: non-standard residue; d: D form. Hyp = O=C(O)[C@@H]1C[C@@H](O)CN1

# compound, display.unit, Bicarbonate
data = [
    ("CC(C)[C@@H]1NC(=O)[C@@H]2C[C@@H](O)CN2C(=O)[C@H]([C@@H](C)O)NC(=O)[C@H](CCCCN)NC(=O)[C@H](CCC(=O)O)NC(=O)[C@H](CC(N)=O)NC(=O)CNC(=O)[C@@H]2C[C@@H](O)CN2C(=O)[C@H](CC(N)=O)NC1=O [AFPep] (cyclo(EKT[Hyp]VN[Hyp]GN))", "mmol/L", 23),
]

----------
Experiment: 8-day repeat-dose study, tolerability (blood chemistry, hematology, adverse events) in tumor-bearing dogs
Type: in vivo, dog
Conditions: Dog 1; Post: 30 min after last injection on day 8; 10 mg s.c. once daily for 8 days
Where a SMILES comes first, the peptide text is derived from it. [ ]: non-standard residue; d: D form. Hyp = O=C(O)[C@@H]1C[C@@H](O)CN1

# molecule, RBC
rows = [
    ("CC(C)[C@@H]1NC(=O)[C@@H]2C[C@@H](O)CN2C(=O)[C@H]([C@@H](C)O)NC(=O)[C@H](CCCCN)NC(=O)[C@H](CCC(=O)O)NC(=O)[C@H](CC(N)=O)NC(=O)CNC(=O)[C@@H]2C[C@@H](O)CN2C(=O)[C@H](CC(N)=O)NC1=O [AFPep] (cyclo(EKT[Hyp]VN[Hyp]GN))", "6 10^6/µL"),
]

----------
Test: 8-day repeat-dose study, tolerability (blood chemistry, hematology, adverse events) in tumor-bearing dogs
Format: in vivo, dog
Conditions: Dog 5; Post: 30 min after last injection on day 8; 10 mg s.c. once daily for 8 days
Where a SMILES comes first, the peptide text is derived from it. [ ]: non-standard residue; d: D form. Hyp = O=C(O)[C@@H]1C[C@@H](O)CN1

# molecule, RBC
rows = [
    ("CC(C)[C@@H]1NC(=O)[C@@H]2C[C@@H](O)CN2C(=O)[C@H]([C@@H](C)O)NC(=O)[C@H](CCCCN)NC(=O)[C@H](CCC(=O)O)NC(=O)[C@H](CC(N)=O)NC(=O)CNC(=O)[C@@H]2C[C@@H](O)CN2C(=O)[C@H](CC(N)=O)NC1=O [AFPep] (cyclo(EKT[Hyp]VN[Hyp]GN))", "7 10^6/µL"),
]

----------
Assay: 8-day repeat-dose study, tolerability (blood chemistry, hematology, adverse events) in tumor-bearing dogs
Type: in vivo, dog
Settings: Dog 4; Post: 30 min after last injection on day 8; 10 mg s.c. once daily for 8 days
Where a SMILES comes first, the peptide text is derived from it. [ ]: non-standard residue; d: D form. Hyp = O=C(O)[C@@H]1C[C@@H](O)CN1
measured.attribute: WBC

# molecule, measurement
data = [
    ("CC(C)[C@@H]1NC(=O)[C@@H]2C[C@@H](O)CN2C(=O)[C@H]([C@@H](C)O)NC(=O)[C@H](CCCCN)NC(=O)[C@H](CCC(=O)O)NC(=O)[C@H](CC(N)=O)NC(=O)CNC(=O)[C@@H]2C[C@@H](O)CN2C(=O)[C@H](CC(N)=O)NC1=O [AFPep] (cyclo(EKT[Hyp]VN[Hyp]GN))", "13 10^3/µL"),
]

----------
Test: 8-day repeat-dose study, tolerability (blood chemistry, hematology, adverse events) in tumor-bearing dogs
Format: in vivo, dog
Details: Dog 1; Post: 30 min after last injection on day 8; 10 mg s.c. once daily for 8 days
Where a SMILES comes first, the peptide text is derived from it. [ ]: non-standard residue; d: D form. Hyp = O=C(O)[C@@H]1C[C@@H](O)CN1
measured.attribute: AST (U/L)

# compound, measured.attribute, display.unit, measurement
rows = [
    ("CC(C)[C@@H]1NC(=O)[C@@H]2C[C@@H](O)CN2C(=O)[C@H]([C@@H](C)O)NC(=O)[C@H](CCCCN)NC(=O)[C@H](CCC(=O)O)NC(=O)[C@H](CC(N)=O)NC(=O)CNC(=O)[C@@H]2C[C@@H](O)CN2C(=O)[C@H](CC(N)=O)NC1=O [AFPep] (cyclo(EKT[Hyp]VN[Hyp]GN))", "AST", "U/L", 14),
]

----------
Assay: Blood chemistry and hematology after single i.v. dose in dogs
Format: in vivo, dog
Details: dogs ~10 kg; 24 h after i.v. 40 mg AFPep; average from 2 dogs
Where a SMILES comes first, the peptide text is derived from it. [ ]: non-standard residue; d: D form. Hyp = O=C(O)[C@@H]1C[C@@H](O)CN1

# compound, Total Bilirubin
measured = [
    ("CC(C)[C@@H]1NC(=O)[C@@H]2C[C@@H](O)CN2C(=O)[C@H]([C@@H](C)O)NC(=O)[C@H](CCCCN)NC(=O)[C@H](CCC(=O)O)NC(=O)[C@H](CC(N)=O)NC(=O)CNC(=O)[C@@H]2C[C@@H](O)CN2C(=O)[C@H](CC(N)=O)NC1=O [AFPep] (cyclo(EKT[Hyp]VN[Hyp]GN))", "0.1 mg/dL"),
]

----------
Assay: Pharmacokinetics in dogs
Format: in vivo
Conditions: iv; dog; i.v.; 4 mg/kg; plasma LC/MS/MS; non-linear regression, first-order PK model; read-out: Cmax
Where a SMILES comes first, the peptide text is derived from it. [ ]: non-standard residue; d: D form. Hyp = O=C(O)[C@@H]1C[C@@H](O)CN1

# compound, Cmax / ng/mL
measured = [
    ("CC(C)[C@@H]1NC(=O)[C@@H]2C[C@@H](O)CN2C(=O)[C@H]([C@@H](C)O)NC(=O)[C@H](CCCCN)NC(=O)[C@H](CCC(=O)O)NC(=O)[C@H](CC(N)=O)NC(=O)CNC(=O)[C@@H]2C[C@@H](O)CN2C(=O)[C@H](CC(N)=O)NC1=O [AFPep] (cyclo(EKT[Hyp]VN[Hyp]GN))", 35000),
]

----------
Test: 8-day repeat-dose study, tolerability (blood chemistry, hematology, adverse events) in tumor-bearing dogs
Format: in vivo, dog
Settings: Dog 5; Post: 30 min after last injection on day 8; 10 mg s.c. once daily for 8 days
Where a SMILES comes first, the peptide text is derived from it. [ ]: non-standard residue; d: D form. Hyp = O=C(O)[C@@H]1C[C@@H](O)CN1
measured.attribute: AST (U/L)

# compound, measured.attribute, display.unit, measurement
records = [
    ("CC(C)[C@@H]1NC(=O)[C@@H]2C[C@@H](O)CN2C(=O)[C@H]([C@@H](C)O)NC(=O)[C@H](CCCCN)NC(=O)[C@H](CCC(=O)O)NC(=O)[C@H](CC(N)=O)NC(=O)CNC(=O)[C@@H]2C[C@@H](O)CN2C(=O)[C@H](CC(N)=O)NC1=O [AFPep] (cyclo(EKT[Hyp]VN[Hyp]GN))", "AST", "U/L", 26),
]

----------
Assay: 8-day repeat-dose study, tolerability (blood chemistry, hematology, adverse events) in tumor-bearing dogs
Format: in vivo, dog
Details: Dog 6; Post: 30 min after last injection on day 8; 10 mg s.c. once daily for 8 days
Where a SMILES comes first, the peptide text is derived from it. [ ]: non-standard residue; d: D form. Hyp = O=C(O)[C@@H]1C[C@@H](O)CN1

# molecule, AST, U/L
measured = [
    ("CC(C)[C@@H]1NC(=O)[C@@H]2C[C@@H](O)CN2C(=O)[C@H]([C@@H](C)O)NC(=O)[C@H](CCCCN)NC(=O)[C@H](CCC(=O)O)NC(=O)[C@H](CC(N)=O)NC(=O)CNC(=O)[C@@H]2C[C@@H](O)CN2C(=O)[C@H](CC(N)=O)NC1=O [AFPep] (cyclo(EKT[Hyp]VN[Hyp]GN))", 18),
]

----------
Assay: Pharmacokinetics in dogs
Type: in vivo
Conditions: dog, in vivo, sc, 4 mg/kg
Where a SMILES comes first, the peptide text is derived from it. [ ]: non-standard residue; d: D form. Hyp = O=C(O)[C@@H]1C[C@@H](O)CN1

# molecule, half-life [min]
measured = [
    ("CC(C)[C@@H]1NC(=O)[C@@H]2C[C@@H](O)CN2C(=O)[C@H]([C@@H](C)O)NC(=O)[C@H](CCCCN)NC(=O)[C@H](CCC(=O)O)NC(=O)[C@H](CC(N)=O)NC(=O)CNC(=O)[C@@H]2C[C@@H](O)CN2C(=O)[C@H](CC(N)=O)NC1=O [AFPep] (cyclo(EKT[Hyp]VN[Hyp]GN))", 65),
]

----------
Experiment: 8-day repeat-dose study, tolerability (blood chemistry, hematology, adverse events) in tumor-bearing dogs
Assay type: in vivo, dog
Conditions: Dog 6; Post: 30 min after last injection on day 8; 10 mg s.c. once daily for 8 days
Where a SMILES comes first, the peptide text is derived from it. [ ]: non-standard residue; d: D form. Hyp = O=C(O)[C@@H]1C[C@@H](O)CN1
measured.attribute: Chloride (mmol/L)

# molecule, measurement
data = [
    ("CC(C)[C@@H]1NC(=O)[C@@H]2C[C@@H](O)CN2C(=O)[C@H]([C@@H](C)O)NC(=O)[C@H](CCCCN)NC(=O)[C@H](CCC(=O)O)NC(=O)[C@H](CC(N)=O)NC(=O)CNC(=O)[C@@H]2C[C@@H](O)CN2C(=O)[C@H](CC(N)=O)NC1=O [AFPep] (cyclo(EKT[Hyp]VN[Hyp]GN))", 114),
]
